System: ERK MAP kinase activity (EKAR reporter), human
protocol.notes: inhibitors of ERK MAP kinase catalytic activity, late-stage follow-up, mechanism study for lytic granule exocytosis inhibitor project, TALL-104 cells, EKAR, flow cytometry, CherryPick01 (AID 720668)
measurement.setup: EKAR/pCdc25C flow cytometry, PMA/thapsigargin, at 30 µM, active compounds read high
Give inhibition for every item shown.
# unit: % | format: bare number

[ask] Form field: reported inhibition of `O=c1c2ccccc2sn1-c1ccccc1`
[reply] -1.6

[ask] Suppose we examine the compound `COc1ccc(-c2cc(NC=O)c3ncc(-c4cccc(OC)c4)n3c2)cc1` ; what inhibition value has been reported?
[reply] -34.2

[ask] Which inhibition value belongs to `COC(=O)c1c(NC(=O)c2nc3ccccc3s2)sc2c1CC(C)(C)NC2(C)C` ?
[reply] 14.4

[ask] Quick check: inhibition of `CCN(CC)CCCNc1ccc(-c2nnc(-c3ccc(OCC(C)C)cc3)o2)cn1` ?
[reply] -20.8

[ask] Recorded inhibition of `O=CNc1cc(-c2ccsc2)cn2c(-c3ccccc3)cnc12` , please.
[reply] -19

[ask] For the compound shown here, COc1ccc(N2C(=O)CC(Sc3nnc(-c4ccccc4)o3)C2=O)cc1 (configuration not stated) , give the reported inhibition.
[reply] -4

[ask] Name the recorded inhibition for `O=C(Cn1sc2ccccc2c1=O)Nc1ccc(F)cc1` .
[reply] 4.6

[ask] Recorded inhibition of `CCCCC[C@@H](C)N1C[C@@H](COCc2ccccc2)Oc2cc(N3CC[C@@H](N(C)C)C3)ccc2S1(=O)=O` , please.
[reply] 7.3

[ask] Endpoint output: inhibition of `CC1=NOC(=O)/C1=C/c1ccc(-c2ccc(Cl)cc2)o1` . Value?
[reply] 16.5

[ask] Request the reported inhibition associated with `COc1ccc(-n2sc3ccccc3c2=O)cc1`
[reply] 13.3

[ask] Sample `COc1ccccc1CNc1nc(NCc2ccc(C(C)C)cc2)c2sccc2n1` — what was its inhibition?
[reply] -9.9

[ask] So what does the record say about inhibition for `CCCCC[C@@H](C)N1C[C@H](COCc2ccccc2)Oc2cc(N3CC[C@@H](N(C)C)C3)ccc2S1(=O)=O` ?
[reply] -5.3

###

System: ERK MAP kinase activity (EKAR reporter), human
protocol.notes: inhibitors of ERK MAP kinase catalytic activity, late-stage follow-up, mechanism study for lytic granule exocytosis inhibitor project, TALL-104 cells, EKAR, flow cytometry, CherryPick01 (AID 720668)
measurement.setup: EKAR/pCdc25C flow cytometry, PMA/thapsigargin, at 30 µM, active compounds read high
value.kind: inhibition (%)
Response body: numeric value in %, unit text excluded.

[ask] // map `Cc1ccc(S(=O)(=O)n2ccc3c(OCCOCCNCc4ccc(F)cc4)cccc32)cc1` to recorded inhibition (system: ERK MAP kinase activity (EKAR reporter), human)
[reply] -15.1

[ask] What is its inhibition for ERK MAP kinase activity (EKAR reporter), human? Entry: CC1COCC(C)N1C1=C(Cl)C(=O)c2ccccc2C1=O (stereo not given)
[reply] -52.7

[ask] I'm curious: which inhibition was measured for `O=c1c2ccc(F)cc2sn1-c1ccccc1` tested on ERK MAP kinase activity (EKAR reporter), human?
[reply] 21.5

[ask] Notebook: pull reported inhibition for ERK MAP kinase activity (EKAR reporter), human, entry `O=C(Cn1sc2ccccc2c1=O)NC12CC3CC(CC(C3)C1)C2`
[reply] 29.8

[ask] Lookup: inhibition / ERK MAP kinase activity (EKAR reporter), human / `COc1ccc(-c2cc(NC=O)c3ncc(-c4ccccc4)n3c2)cc1OC`
[reply] -19.8

[ask] API: value(readout= inhibition, system= ERK MAP kinase activity (EKAR reporter), human, query= `CN(C)CCNC(=O)c1ccc(-c2cn3c(-c4ccc(Oc5ccccc5)cc4)cnc3cn2)cc1` )
[reply] -6.6

[ask] Form field - read-out: inhibition; system: ERK MAP kinase activity (EKAR reporter), human; submitted item: `Cc1ccc(Nc2nc(NCc3ccco3)c3ccccc3n2)cc1`
[reply] -6.4

[ask] Record lookup: for ERK MAP kinase activity (EKAR reporter), human, what inhibition belongs to `O=C(CN1C(=O)/C(=C\c2cccc(Br)c2)Oc2ccccc21)NCCCN1CCOCC1` ?
[reply] -3.6

[ask] Missing value: inhibition, ERK MAP kinase activity (EKAR reporter), human, entry CC(C)(c1ccccc1)c1ccc(OCC(O)CNC2CCN(Cc3ccccc3)CC2)cc1 (stereo not given) . Fill in?
[reply] -13.5

[ask] I'm curious: which inhibition was measured for `CCCCC[C@@H](C)N1C[C@@H](COCc2ccccc2)Oc2cc(N3CC[C@H](N(C)C)C3)ccc2S1(=O)=O` tested on ERK MAP kinase activity (EKAR reporter), human?
[reply] 6.3

The measured values listed here are drawn from PubChem BioAssay AID720668.
